Sourced from ChEMBL document CHEMBL5537141

experiment: Metabolic stability in human liver microsomes assessed as half life measured upto 60 mins by LC/MS-MS analysis; type: ADME, Microsome
Field: half-life. Provide a value for each of the compounds that follow.
One number for each entry, in min.

{"columns": ["Sample Smiles", "half-life [min]"],
 "data": [
  ["C[C@@H]1C[C@H](N)CN(c2ccncc2NC(=O)c2ccc(F)c(-c3ccccc3F)n2)C1", 13]
]}

// next item, half-life requested
Please supply the value of reported half-life for the item C[C@@H]1C[C@H](N)CN(c2ccncc2NC(=O)c2ccc(F)c(-c3c(F)cccc3F)n2)C1
40
